Just for reference, patent US20240400701A1 is where these values come from.

# system.tested: T1, human AMHRII (anti-Mullerian hormone receptor type 2) (human, UniProt Q16671 18-573)
# T1 construct: whole, on cells; also called AMHR2; human AMHR2
# T1 sequence (looked up): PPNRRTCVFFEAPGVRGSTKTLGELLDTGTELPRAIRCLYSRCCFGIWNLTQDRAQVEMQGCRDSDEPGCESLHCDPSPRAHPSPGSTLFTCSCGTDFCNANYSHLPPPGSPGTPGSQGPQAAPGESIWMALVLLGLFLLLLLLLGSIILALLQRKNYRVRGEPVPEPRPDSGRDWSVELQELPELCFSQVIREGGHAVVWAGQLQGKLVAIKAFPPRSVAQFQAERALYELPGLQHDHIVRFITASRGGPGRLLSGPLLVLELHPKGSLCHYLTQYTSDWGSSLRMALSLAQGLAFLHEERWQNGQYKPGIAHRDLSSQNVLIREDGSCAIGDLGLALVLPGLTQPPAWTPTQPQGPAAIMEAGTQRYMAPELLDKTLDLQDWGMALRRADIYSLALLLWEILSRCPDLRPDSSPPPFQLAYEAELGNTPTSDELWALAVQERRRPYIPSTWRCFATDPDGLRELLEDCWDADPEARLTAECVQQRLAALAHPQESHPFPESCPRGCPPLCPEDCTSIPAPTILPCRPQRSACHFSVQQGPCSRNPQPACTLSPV
# method.notes: FACS on CHO-K1 cells over-expressing human AMHR2
What Top (MFI) was measured for each of the following?
Number first, unit second.

Worked set:
Looking for the measured Top (MFI) of xi94C4C3 hIgG1 (antibody, V domains shown, Murine variable domains in human chimeric format, human IgG1; also called xi94C4C3 hlgG1; 94C4C3 (chimeric)) VH: DVQLQESGPGLVKPSQSLSLTCTVTGYSITSDYAWNWIRQFPGNKLEWMGYISYSGSISYNPSLKSRISITRDTSKNQFFLQLNSVTTEDTATYYCARSRYSWFDYWGQGTLVTVSA VL: DIVLTQSPTSLAVSLGQRATLSCSASESVDTYGNSFMHWYQQKPGQPPKLLIYRASSLESGIPVRFSGSGSRTDFTLTINPVEAADVATYYCQQSNEDPYTFGGGTKLEIK , can you help?
54900 MFI

Looking for the measured Top (MFI) of 94C4C3 H4L1 hIgG1 (antibody, V domains shown, Humanized, human IgG1; also called 94C4C3 H4L1 hlgG1) VH: QVQLQESGPGLVKPSETLSLTCTVTGYSITSDYAWNWIRQFPGKKLEWMGYISYSGSISYNPSLKSRITISRDTSKNQFFLQLSSVTAADTAVYYCARSRYSWFDYWGQGTLVTVSS VL: EIVLTQSPGTLSLSPGERATLSCSASESVDTYGNSFMHWYQQKPGQAPRLLIYRASSLESGIPDRFSGSGSGTDFTLTISRLEPEDFAVYYCQQSNEDPYTFGGGTKVEIK , can you help?
49500 MFI

---
Looking for the measured Top (MFI) of 94C4C3 H3L1 hIgG1 (antibody, V domains shown, Humanized, human IgG1; also called 94C4C3 H3L1 hlgG1) VH: QVQLQESGPGLVKPSETLSLTCTVSGYSITSDYAWNWIRQFPGKGLEWMGYISYSGSISYNPSLKSRITISRDTSKNQFFLKLSSVTAADTAVYYCARSRYSWFDYWGQGTLVTVSS VL: EIVLTQSPGTLSLSPGERATLSCSASESVDTYGNSFMHWYQQKPGQAPRLLIYRASSLESGIPDRFSGSGSGTDFTLTISRLEPEDFAVYYCQQSNEDPYTFGGGTKVEIK , can you help?
51000 MFI
